ASSAY_SYSTEM: T1, His-tagged cynomolgus monkey CD38 (ACRO Biosystems, CD8-05223 [sic]) (cynomolgus monkey, UniProt Q5VAN0 43-301)
T1 construct: bought protein; used for ELISA coating and as SPR analyte; not shown: His tag
TEST_DETAILS: SPR, IgG
Each entry below carries its reported Kd.
# output: bare number, implied unit nM

Known Kd results, listed for orientation:
INSERT INTO assay_data (binder, units_of_measure, obs_value) VALUES
  ('40769p2.2.A6 IgG (antibody, V domains shown, IgG) VH: EVQLLESGGGLVQPGGSLRLSCAASGFTFSDYEMNWVRQAPGKGLEWVSAISITGSWTYYADSVKGRFTISRDNSENTLYLQMNNLRAEDTAVYYCANYKSYYGMDVWGRGTTVTVSS VL: QSVLTQPPSASGTPGQRVTISCSGSRSNIRNNLVNWYQQLPGTAPKLLIYNTQRPSGVPDRFSGSKSGTSASLAISGLQSEDEADYYCASWDASLNAWVFGGGTKLTVL', 'nM', 22.9),
  ('40769p2.1.E1 IgG (antibody, V domains shown, IgG) VH: EVQLLESGGGLIQPGGSLRLSCTASGFDFSSYGMHWVRQAPGKGLEWVAIISDSGGTTYYGDSVKGRFTISRDNSKSTLYLQMNSLRAEDTALYYCASYIMDVWGQGTTVTVSS VL: QSVLTQPPSASGTPEQRVTISCSGSNSNVGDNAVYWYQQLPGTAPKLLFYGTNRRPSGVPDRFSGSKSGTSASLAISGLQSEDEADYYCAAWDDSLNAWVFGGGTKLTVL', 'nM', 261),
  ('40769p2.1.G4 IgG (antibody, V domains shown, IgG) VH: EVQLLESGGGLVQPGGSLRLSCAASGFTFTSHDMNWVRQAPGKGLEWVSTITTGGNTYYADSVKGRFTISRDNSKNTLYLQMTSLRAEDTAVYYCTKHYSMDVWGQGTTVTVSS VL: QSVLTQPPSASGTPGQRVTISCSGSTSNVVFNAVYWYQQLPGTAPKLLFYGKSQRPSGVPDRFSGSKSGTSASLAISGLQSEDEADYYCAAWDDTLNGWVFGGGTKLTVL', 'nM', 73.8),
  ('40596p2.1.B8 IgG (antibody, V domains shown, IgG) VH: EVQLLESGGGLGQPGGSLRLSCAASGFDFSSYAMSWVRQAPGKGLEWVAGGGWSGSFIYYADSVKGRFTISRDNSKNTLYLQMNSLRAEDTAVYYCTRNPGFGEMDVWGQGTTVTVSS VL: EIVLTQSPGTLSLSPGERATLSCRASQTVGSNLAWYQQKPGQAPRLLIHGANNRATDIPDRFSGSGSGTEFTLTVSSLQSEDFAIYYCQQYNSWPPLTFGGGTKVEIK', 'nM', 159);

Proceeding to the next binder to report its Kd.
So what's the measured Kd for this one? 40769p2.1.C1 IgG (antibody, V domains shown, IgG) VH: EVQLLESGGGLVQPGGSLRLSCAASGFSFSDYWMNWVRQAPGKGLEWVSTISSGGNMIYYADSVKGRFTISRDNSKNTLYLRMNSLRAEDTAVYYCAKDNWNDYYGMDVWGQGTTVTVSS VL: QSVLTQPPSASGTPGQRVTISCSGSSSNIRDNYVYWYQQVPGTAPKLLIYKDDQRPSGVPDRFSGSKSGSSASLAISGLQSEDEADYYCATWDGSLNARVFGGGTKLTVL
29.3
